Record form. Attribute: EC50. Fill in for each entry.
# system name: BK β1 subunit (Rattus norvegicus, UniProt P97678)
# Sequence (P97678 whole entry): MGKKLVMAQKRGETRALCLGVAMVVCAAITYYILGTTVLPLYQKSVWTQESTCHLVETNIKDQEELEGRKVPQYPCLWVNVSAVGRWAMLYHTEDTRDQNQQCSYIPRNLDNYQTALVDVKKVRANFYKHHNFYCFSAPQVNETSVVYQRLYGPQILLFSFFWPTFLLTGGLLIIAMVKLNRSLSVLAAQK
# Sequence (Q62976 whole entry partner): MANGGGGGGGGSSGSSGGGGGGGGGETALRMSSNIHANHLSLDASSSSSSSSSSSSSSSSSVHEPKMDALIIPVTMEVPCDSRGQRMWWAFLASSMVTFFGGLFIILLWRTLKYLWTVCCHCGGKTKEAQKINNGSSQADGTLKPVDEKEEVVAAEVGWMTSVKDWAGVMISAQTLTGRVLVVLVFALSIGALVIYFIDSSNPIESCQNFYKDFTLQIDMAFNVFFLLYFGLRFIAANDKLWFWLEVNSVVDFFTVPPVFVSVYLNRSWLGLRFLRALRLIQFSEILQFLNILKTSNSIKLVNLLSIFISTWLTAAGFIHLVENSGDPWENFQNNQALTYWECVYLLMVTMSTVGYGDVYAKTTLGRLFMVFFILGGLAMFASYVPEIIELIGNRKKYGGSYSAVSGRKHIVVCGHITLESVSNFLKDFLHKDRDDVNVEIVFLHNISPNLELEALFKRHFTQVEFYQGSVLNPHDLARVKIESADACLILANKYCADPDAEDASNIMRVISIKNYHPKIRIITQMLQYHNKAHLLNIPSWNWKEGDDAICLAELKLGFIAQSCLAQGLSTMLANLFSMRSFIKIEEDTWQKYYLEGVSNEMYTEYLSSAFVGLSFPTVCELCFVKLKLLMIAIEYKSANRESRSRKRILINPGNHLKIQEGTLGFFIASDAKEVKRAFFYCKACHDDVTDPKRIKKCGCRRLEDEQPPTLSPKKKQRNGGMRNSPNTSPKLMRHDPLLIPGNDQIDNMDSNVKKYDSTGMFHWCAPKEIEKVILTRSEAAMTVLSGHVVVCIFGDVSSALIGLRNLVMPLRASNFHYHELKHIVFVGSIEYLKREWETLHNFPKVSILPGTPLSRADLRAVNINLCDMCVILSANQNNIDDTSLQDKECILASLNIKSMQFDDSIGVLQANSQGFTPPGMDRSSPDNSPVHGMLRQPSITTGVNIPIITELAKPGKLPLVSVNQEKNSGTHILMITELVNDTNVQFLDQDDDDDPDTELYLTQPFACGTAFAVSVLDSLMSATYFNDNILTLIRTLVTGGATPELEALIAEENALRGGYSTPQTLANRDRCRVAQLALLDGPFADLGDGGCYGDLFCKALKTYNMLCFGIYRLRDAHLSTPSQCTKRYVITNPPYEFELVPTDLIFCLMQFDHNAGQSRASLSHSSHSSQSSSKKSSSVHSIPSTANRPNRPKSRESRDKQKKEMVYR
# method description: inside-out patch clamp, single-channel NPo in excised oocyte patches
Give the value in µM but do not write µM after it.

Recall and state the measured EC50 for C[C@H](CCCC(=O)O)[C@H]1CC[C@H]2[C@@H]3CC[C@@H]4C[C@H](O)CC[C@]4(C)[C@H]3CC[C@]12C [compound 15] .
42.8

State its EC50 for this compound: C[C@H](CCC#N)[C@H]1CC[C@H]2[C@@H]3CC[C@@H]4C[C@H](O)CC[C@]4(C)[C@H]3CC[C@]12C [compound 11]
46.4

Give the measured EC50 for C[C@H](CCC(=O)O)[C@H]1CC[C@H]2[C@@H]3CC[C@@H]4C[C@H](O)CC[C@]4(C)[C@H]3CC[C@]12C [LCA, 5β-cholanic acid-3α-ol]
44

The origin of these recorded values is paper PMC4193543.
